Biological target: tau (Homo sapiens)
Sequence (P10636 623-695 limits assumed): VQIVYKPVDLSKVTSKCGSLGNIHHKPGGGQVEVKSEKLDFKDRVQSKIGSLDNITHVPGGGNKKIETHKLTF
Assay: MCE Phenols Library screening, tau biosensor cell seeding assay (AvZ)
Format: cell-based
Conditions: puncta, replicate 2
Parameter class (string): assigned from measured raw data 2. Ranges: low range (below 8000), mid range (8000 to below 10000), high range (10000 or more)

INSERT INTO assay_data (compound, qualitative_label) VALUES
  ('O=Cc1cccc(O)c1 [3-Hydroxybenzaldehyde]', 'mid range'),
  ('Oc1ccc(OC2CCCCO2)cc1 (stereo not shown)', 'high range'),
  ('O=C(O)[C@H](O)Cc1ccc(O)c(O)c1', 'low range'),
  ('COc1c2ccoc2c(O)c2oc(=O)ccc12 [8-Hydroxybergapten]', 'high range'),
  ('O.O.O=c1c(O)c(-c2ccc(O)c(O)c2)oc2cc(O)cc(O)c12 [Quercetin (dihydrate)]', 'low range');

Task item: Hi there! Could you help me figure out the category for O=C1c2c(O)cccc2[C@@H]([C@@H]2O[C@H](CO)[C@@H](O)[C@H](O)[C@H]2O)c2cc(CO)cc(O)c21 please?
Reply: mid range

Task item: Another compound to check: COc1ccc(CCO[C@@H]2O[C@H](CO[C@@H]3O[C@H](CO)[C@H](O)[C@H](O)[C@H]3O)[C@@H](OC(=O)/C=C/c3ccc(O)c(OC)c3)[C@H](O[C@@H]3O[C@@H](C)[C@H](O)[C@@H](O)[C@H]3O)[C@H]2O)cc1O [Jionoside B1]
Reply: mid range

Task item: Query CCCC(=O)c1c(O)c(Cc2c(O)c(Cc3c(O)c(C)c(OC)c(C(=O)CCC)c3O)c(O)c(C(=O)[C@@H](C)CC)c2O)c(O)c(C)c1OC next
Reply: low range
